test system: MDA-MB-468; assay: Doxorubicin combination in triple negative breast cancer cells; assay type: cell-based; settings: Homo sapiens, MDA-MB-468, read-out: Doxorubicin IC50 (μM), plating density 20000; BRCA wild-type
Property label: IC50
The answer should read as a number with its unit following.

Find the measured IC50 of COc1cccc2c1C(=O)c1c(O)c3c(c(O)c1C2=O)C[C@@](O)(C(=O)CO)C[C@@H]3O[C@H]1C[C@H](N)[C@H](O)[C@H](C)O1 [Doxorubicin, reference compound] and report it.
0.04 µM

====

system: HCC-1599; experiment: Doxorubicin combination in triple negative breast cancer cells; type: cell-based; conditions: Homo sapiens, HCC1599, read-out: Doxorubicin IC50 (μM); plating density unknown; BRCA mutant
Property label: IC50 (µM)
Write the answer as a number in µM, unit excluded.

Give me measured IC50, please, for this molecule: COc1cccc2c1C(=O)c1c(O)c3c(c(O)c1C2=O)C[C@@](O)(C(=O)CO)C[C@@H]3O[C@H]1C[C@H](N)[C@H](O)[C@H](C)O1 [Doxorubicin, reference compound]
0.2
